Molecular target: human SCD5 (Homo sapiens, UniProt Q86SK9)
Construct: expressed in transfected cells; host or cells: yeast strain with OLE1 deleted, plasmid-borne human SCD5 (selected in SD-Ura)
Sequence (Q86SK9 1-330): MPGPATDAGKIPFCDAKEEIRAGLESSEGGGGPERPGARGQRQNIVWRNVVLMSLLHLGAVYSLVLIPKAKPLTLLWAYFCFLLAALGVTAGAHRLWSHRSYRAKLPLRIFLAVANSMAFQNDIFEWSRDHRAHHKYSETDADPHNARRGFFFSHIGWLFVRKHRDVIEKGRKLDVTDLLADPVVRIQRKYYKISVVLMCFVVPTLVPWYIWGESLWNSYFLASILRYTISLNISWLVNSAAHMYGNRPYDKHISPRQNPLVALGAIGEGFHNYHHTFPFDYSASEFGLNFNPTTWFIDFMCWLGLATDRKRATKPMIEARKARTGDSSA
Assay: Growth inhibition of yeast strain expressing human SCD5 as sole desaturase (OLE1 deleted), OD600 readout
Format: cell-based
Conditions: yeast strain expressing human SCD5 as sole desaturase; growth (OD600) after 40 h at 30° C.; read-out: SCD5 IC50
Listing of entries alongside the reported IC50.
Record the value in nM, omitting the unit from your answer.

Some compounds with known IC50 results, for comparison:
>>> measured_number("O=C(Nc1ncc(Cc2cccc(F)c2)s1)c1ccc(=O)n(CCF)n1 [Compound 226]")
5710
>>> measured_number("COCc1ccc(C(=O)Nc2ccc(Cc3cccc(Cl)c3)cn2)cn1 [Compound 136]")
490
>>> measured_number("O=C(Nc1ccc(Cc2cc(F)cc(F)c2)cn1)c1cnc(Cl)c(Cl)c1 [Compound 601]")
34
>>> measured_number("COc1cccc(Cc2ccc(NC(=O)C3=NN(C)C(=O)CC3)nc2)c1 [Example 30]")
3530
>>> measured_number("CN1N=C(C(=O)Nc2ccc(Cc3ccc(Cl)s3)cn2)CCC1=O [Example 21]")
1780
>>> measured_number("CC1(C)CN(C(=O)c2ccc(Cc3cccc(F)c3)cn2)CCO1 [Compound 339]")
17700
>>> measured_number("CCn1ccc(C(=O)Nc2ccc(Cc3ccc(F)c(F)c3)cn2)n1 [Compound 98]")
40
>>> measured_number("CCn1nc(C(=O)Nc2ccc(Cc3cccc(Cl)c3)cn2)ccc1=O [Compound 67]")
120

Q) Requested read-out: IC50. Entry: O=C(Nc1ncc(Cc2cccc(Cl)c2)s1)c1ccc(=O)n(C2COC2)n1 [Compound 225]
A) 1960

Q) Cc1nccc(NC(=O)c2ccc(Cc3cccc(F)c3)cn2)n1 [Compound 115] ?
A) 50

The values you see were collected from patent US20230078764A1.
